System: MDA-MB-453
Experiment: normalised viability (% of control), CellTiter-Blue; higher = more viable cells (about 100 = DMSO control)
Settings: incubation time: 72 h
Reported normalised viability values follow for various molecules
Be sure to follow the number with its unit.

Example molecules with recorded normalised viability:
{"molecule": "Cc1cc(Nc2nc(N[C@@H](C)c3ncc(F)cn3)ncc2Cl)[nH]n1 [AZD1480] (300 nM)", "assayed.system": "MDA-MB-453", "normalised viability": "94.2%"}
{"molecule": "COc1cc(Nc2c(C#N)cnc3cc(OCCCN4CCN(C)CC4)c(OC)cc23)c(Cl)cc1Cl [Bosutinib] (3000 nM)", "assayed.system": "MDA-MB-453", "normalised viability": "50.1%"}
{"molecule": "CN(Cc1cnc2nc(N)nc(N)c2n1)c1ccc(C(=O)N[C@@H](CCC(=O)O)C(=O)O)cc1 [Methotrexate] (3000 nM)", "assayed.system": "MDA-MB-453", "normalised viability": "91.4%"}
{"molecule": "COc1ccc(S(=O)(=O)Nc2cccnc2Nc2ccc(O)cc2)cc1 [ABT-751] (3000 nM)", "assayed.system": "MDA-MB-453", "normalised viability": "27.7%"}
{"molecule": "C=CCN(/C=C1/C(=O)O[C@H](COC)[C@@]2(C)C1=C(O)C(=O)C1=C2[C@H](OC(C)=O)C[C@]2(C)C(=O)CC[C@@H]12)CC=C [PX-866] (3000 nM)", "assayed.system": "MDA-MB-453", "normalised viability": "114%"}

Let us move to another entry and its normalised viability.
Ask: Check the records and state normalised viability for COc1c2occc2cc2ccc(=O)oc12 [Methoxsalen] (3000 nM)
Result: 114%
